# Test system: SW-620
# PROTOCOL DETAILS: NCI tumour cell line growth inhibition, 48 h
Active and inactive are the calls of the source. No stated cut-off is given here; in the data, active = GI50 up to about 1.1 µM and inactive = higher.
Recorded GI50 by entry

Enquiry: Please give the measured GI50 for this compound: Cc1nc2c(n1C)C(=O)c1nc(CBr)[nH]c(=O)c1C2=O
Return: > 100 µM (inactive)

* * *

# System: SR
# PROTOCOL DETAILS: NCI tumour cell line growth inhibition, 48 h
Activity calls are given as the source filed them. Rule as the data show it: active = GI50 up to about 1.1 µM and inactive = higher.
Entry note: the call must match one of Yes for active, No for inactive

Cc1ccc(S(=O)(=O)NC2(C=O)CCC(C(C)(C)C)CC2)cc1 (configuration not stated) | No
c1ccc2c(c1)Sc1nccc3ccnc-2c13 | No
N#CC(C#N)=C/C=C/c1ccccc1[N+](=O)[O-] | No
CC(=O)Nc1ccc2c(C)c3c(nc2n1)[nH]c1ccccc13 | No
CN(C)c1ccc2c(c1)oc(=O)c1ccccc12 | No

Enquiry: Recorded call for O=[N+]([O-])c1cccc(S(=O)(=O)N/N=C/c2cc(I)cc([N+](=O)[O-])c2O)c1 ?
Return: No

Enquiry: Would you kindly repeat that for O=C1N=C(c2ccccc2)O/C1=C\c1ccccc1 ?
Return: No

Enquiry: Would you kindly repeat that for C[Si](C)(c1ccccc1)C1CC(=O)CC(=O)C1 ?
Return: No

Enquiry: Would you kindly repeat that for NC(=O)C(=O)n1ncc(Cl)c(Cl)c1=O ?
Return: No

Enquiry: Would you kindly repeat that for COc1nc2c(c(O)c(C)c(=O)n2OC2OCC(OC(C)=O)C(OC(C)=O)C2OC(C)=O)c(=O)n1C (configuration not stated) ?
Return: No

Enquiry: Would you kindly repeat that for CCCCCCCCCCCCNC(=O)NCC(OCC)OCC ?
Return: No

Enquiry: Would you kindly repeat that for Cc1ccc(SSCCCCCS(=O)O)cc1 ?
Return: No

Enquiry: Would you kindly repeat that for C[N+](C)(CCCn1ccnc1[N+](=O)[O-])CCCn1ccnc1[N+](=O)[O-] ?
Return: No

Enquiry: Would you kindly repeat that for C[n+]1c2ccccc2c(CNCC(=O)O)c2ccccc21 ?
Return: Yes

Enquiry: Would you kindly repeat that for Cc1cc2c(c(C(=O)NCCC(=O)N[C@@H](C)C(=O)OCc3ccccc3)c1)Oc1c(cc(C)cc1C(=O)NCCC(=O)N[C@@H](C)C(=O)OCc1ccccc1)S2 ?
Return: No

Enquiry: Would you kindly repeat that for COc1ccccc1NC(=O)C(=O)C(C(=O)c1ccccc1F)C1OC(=O)c2ccccc21 (configuration not stated) ?
Return: No

Enquiry: Would you kindly repeat that for O=C1C(N2C(=O)c3ccccc3C2=O)CN1C(COCc1ccccc1)c1ccc(OCc2ccccc2)cc1 (configuration not stated) ?
Return: No
